Source of measurements: the domain aggregation screens of Martell et al. (2025)

# experiment: soluble fraction after stress (log2 fold change); higher = more stays soluble; pooled small domains, quantitative proteomics
# assay.conditions: stress: 50 degC
The sequences listed here are annotated with their soluble fraction (log2).

monomer.sequence: HMPTTTFENLPDAKKKTIIAALLKEFSQSPLSKAQVAPIVKESQIARGAFYKYFVDLTDAYTYLYRQ
soluble fraction (log2): -0.204
//
monomer.sequence: HMLPISGDDRDALDMAALILKQYDSLPILKEFANVVTKLQTVLDGVVSNSIEARRQMIQFEE
soluble fraction (log2): -0.0336
//
monomer.sequence: HMQGDHELSQRILSYLSEQGGSSPLTDKASPEEIYRIFRVSKKKYKQALGNLYKSKSIIILADKIQLL
soluble fraction (log2): -0.736
//
monomer.sequence: HMIDTPQELARLLRLLDEQNFEAEILFHKLRPDLLHLWSKEHVTRIAEALDAFDYQMALTLLNASP
soluble fraction (log2): -2.23
//
monomer.sequence: HMTGGIWVQIQGAVERPGVYSLPRDSRLKDLLEAAGGFGRDADTEKVNQAARLEDGAMYRVPRQGEG
soluble fraction (log2): 0.352
//
monomer.sequence: HMNFRESVLAVFENSKQKYLDFDEIAKRLGLTRGFDRQALASMLNELTRNDEIVFTKRNKYTLPEN
soluble fraction (log2): 0.125
//
monomer.sequence: HMDMTPEEFLAWARHKPFGDPFPKTQTVTFLVPLLGVSRTNIFTWISGKVNPSKTSLLLMEALKRENR
soluble fraction (log2): -0.289
//
monomer.sequence: HMENEDMTGDIRVIDYIRNVAEYIQTTKGQASASQMLDRFLFPPELQYTPLDKLSGGEQRRLYLLKVLMEA
soluble fraction (log2): 0.0342
